Hey, just so you know, these numbers are from ChEMBL document CHEMBL3352550.

- assayed target: Heat shock protein HSP90 (Homo sapiens, UniProt P07900+P08238)
- protocol: Inhibition of geldanamycin-BODIPY binding to full-length HSP90 (unknown origin) by fluorescence polarization based competition assay
- Type: protein assay
measured metric: IC50
Number first, unit second: that is the form wanted.

Below, each entry is followed by its recorded IC50 result.
COc1ccc(-c2c(/C=C/C(=O)N3CCN(c4cccc(OC)c4)CC3)noc2-c2cc(Cl)c(O)cc2O)cc1; 718 nM
COc1ccc(CN2CCC(NC(=O)c3noc(-c4cc(Cl)c(O)cc4O)c3-c3ccc(OC)cc3)CC2)cc1; 16 nM
COc1ccc(-c2c(C(=O)NC3CCN(Cc4ccncc4)CC3)noc2-c2cc(Cl)c(O)cc2O)cc1; 15 nM

Field: next compound
Look up IC50 for this compound: COc1ccc(-c2c(C(=O)Nc3ccc(N(C)C)cc3)noc2-c2cc(Cl)c(O)cc2O)cc1 91 nM

====

Give measured efflux ratio for each item. Keep answers brief.
- protocol: Efflux ratio in human Caco2 cells
- measurement parameters: Caco-2
Give bare numbers.

COc1ccc(-c2c(/C=C/C(=O)N3CCN(c4ncccn4)CC3)noc2-c2cc(Cl)c(O)cc2O)cc1; 0.74
COc1cccc(N2CCN(C(=O)/C=C/c3noc(-c4cc(Cl)c(O)cc4O)c3-c3ccc(O)cc3)CC2)c1; 2.29
COc1ccc(CN2CCC(NC(=O)c3noc(-c4cc(Cl)c(O)cc4O)c3-c3ccc(OC)cc3)CC2)cc1; 9.04

Look up efflux ratio for this compound: COc1ccccc1N1CCN(C(=O)/C=C/c2noc(-c3cc(Cl)c(O)cc3O)c2-c2ccc(O)cc2)CC1 1.38

====

- assayed target: UniProt:Q15120
- Sequence (Q15120 whole entry): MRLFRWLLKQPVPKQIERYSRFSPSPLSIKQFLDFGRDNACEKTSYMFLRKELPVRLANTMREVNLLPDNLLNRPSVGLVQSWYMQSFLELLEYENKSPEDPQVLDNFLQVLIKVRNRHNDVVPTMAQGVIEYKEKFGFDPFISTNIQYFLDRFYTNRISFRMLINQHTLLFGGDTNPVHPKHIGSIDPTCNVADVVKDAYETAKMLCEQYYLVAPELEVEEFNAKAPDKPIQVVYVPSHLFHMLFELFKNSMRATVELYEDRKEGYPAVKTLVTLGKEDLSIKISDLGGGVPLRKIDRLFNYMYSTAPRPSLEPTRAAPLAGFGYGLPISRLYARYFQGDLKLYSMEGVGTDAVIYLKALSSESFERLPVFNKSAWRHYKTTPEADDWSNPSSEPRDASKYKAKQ
- protocol: Inhibition of recombinant PDHK3 (unknown origin) expressed in Escherichia coli incubated for 1 hr by ELISA
measured metric: IC50 (µM)
Answers are plain numbers, in µM.

Lookup: IC50 / UniProt:Q15120 / COc1ccccc1N1CCN(C(=O)/C=C/c2noc(-c3cc(Cl)c(O)cc3O)c2-c2ccc(O)cc2)CC1 5.34

====

- assayed target: Heat shock protein HSP90 (Homo sapiens, UniProt P07900+P08238)
- protocol: Inhibition of HSP90 in human NCI-H1299 cells assessed as reduction in HER2 protein levels at 10 uM incubated for 12 hrs by immunoblotting method
- Format: cell-based
Activity calls are given as the source filed them. No cut-off for these calls is given here.
measured metric: inhibition

Below, each entry is followed by its recorded inhibition result.
COc1ccc(CN2CCC(NC(=O)c3noc(-c4cc(Cl)c(O)cc4O)c3-c3ccc(OC)cc3)CC2)cc1; Active
COc1ccccc1N1CCN(C(=O)/C=C/c2noc(-c3cc(Cl)c(O)cc3O)c2-c2ccc(O)cc2)CC1; Active
COc1cccc(N2CCN(C(=O)/C=C/c3noc(-c4cc(Cl)c(O)cc4O)c3-c3ccc(O)cc3)CC2)c1; Active
COc1ccc(-c2c(/C=C/C(=O)N3CCN(c4ncccn4)CC3)noc2-c2cc(Cl)c(O)cc2O)cc1; Active
COc1ccc(-c2c(C(=O)NC3CCN(Cc4ccccc4)CC3)noc2-c2cc(Cl)c(O)cc2O)cc1; Active

Field: next compound
Look up inhibition for this compound: COc1ccc(-c2c(C(=O)NC3CCN(CC4CC4)CC3)noc2-c2cc(Cl)c(O)cc2O)cc1 Active

====

- assayed target: [Pyruvate dehydrogenase (acetyl-transferring)] kinase isozyme 1, mitochondrial (Homo sapiens, UniProt Q15118)
- Sequence (Q15118 whole entry): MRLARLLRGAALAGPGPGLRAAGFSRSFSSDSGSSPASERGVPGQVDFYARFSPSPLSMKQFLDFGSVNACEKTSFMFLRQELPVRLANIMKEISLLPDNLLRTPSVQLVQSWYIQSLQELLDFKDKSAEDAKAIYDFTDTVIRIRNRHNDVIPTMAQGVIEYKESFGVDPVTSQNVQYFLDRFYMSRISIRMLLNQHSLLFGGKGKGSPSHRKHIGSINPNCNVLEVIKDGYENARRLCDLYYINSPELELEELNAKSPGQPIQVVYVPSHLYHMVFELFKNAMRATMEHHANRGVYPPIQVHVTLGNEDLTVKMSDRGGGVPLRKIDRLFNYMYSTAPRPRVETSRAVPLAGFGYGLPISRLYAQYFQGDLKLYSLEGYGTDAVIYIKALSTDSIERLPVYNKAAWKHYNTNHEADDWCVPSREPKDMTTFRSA
- protocol: Inhibition of recombinant PDHK1 (unknown origin) expressed in Escherichia coli incubated for 1 hr by ELISA
Give measured pIC50 for each item. Keep answers brief.
Give bare numbers, as −log10 of the molar value.

Below, each entry is followed by its recorded pIC50 result.
COc1ccc(-c2c(/C=C/C(=O)N3CCN(c4ccc(Cl)c(Cl)c4)CC3)noc2-c2cc(Cl)c(O)cc2O)cc1; 5.37
COc1ccc(-c2c(/C=C/C(=O)N3CCN(c4cccc(OC)c4)CC3)noc2-c2cc(Cl)c(O)cc2O)cc1; 6.31

Field: next molecule
Look up pIC50 for this molecule: CCNC(=O)N1CCC(NC(=O)c2noc(-c3cc(Cl)c(O)cc3O)c2-c2ccc(OC)cc2)CC1 6.82
